Attribute: α-rat koff
Target: T1, rat α-CGRP (Rattus norvegicus, UniProt P01256)
T1 construct: rat α (1-37); purchased GenScript Corporation or Global Peptide Services
T1 sequence (P01256 83-119 limits assumed): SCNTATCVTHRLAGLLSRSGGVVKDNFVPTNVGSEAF
Experiment: Biacore SPR affinity of Fab fragments to N-biotinylated rat α-CGRP on SA chip
Format: binding
Settings: 37° C., screening mode except underlined values
# answer = value followed by unit

Sample records with α-rat koff:
MOLECULE	α-rat koff
M69: G1 variant; L1 R28N T30G; L2 L561; H2 E54K A57N S58E; HC-FW3 L99T A100V (antibody, V domains shown) VH: EVQLVESGGGLVQPGGSLRLSCAASGFTFSNYWISWVRQAPGKGLEWVAEIRSKSDNEATHYAEAVKGRFTISRDNAKNSLYLQMNSLRAEDTAVYYCTVYFDYGLAIQNYWGQGTLVTVSS VL: EIVLTQSPATLSLSPGERATLSCKASKNVGTYVSWYQQKPGQAPRLLIYGASNRYIGIPARFSGSGSGTDFTLTISSLEPEDFAVYYCSQSYNYPYTFGQGTKLEIK	0.00181 s⁻¹
M31: G1 variant; L1 R28N T30G; H2 E54K A57G; HC-FW3 L99T A100V (antibody, V domains shown) VH: EVQLVESGGGLVQPGGSLRLSCAASGFTFSNYWISWVRQAPGKGLEWVAEIRSKSDGSATHYAEAVKGRFTISRDNAKNSLYLQMNSLRAEDTAVYYCTVYFDYGLAIQNYWGQGTLVTVSS VL: EIVLTQSPATLSLSPGERATLSCKASKNVGTYVSWYQQKPGQAPRLLIYGASNRYLGIPARFSGSGSGTDFTLTISSLEPEDFAVYYCSQSYNYPYTFGQGTKLEIK	0.00361 s⁻¹
M44: G1 variant; L1 R28N; L2 G50A L56T; H2 E54K A57N S58E; HC-FW3 L99T A100V (antibody, V domains shown) VH: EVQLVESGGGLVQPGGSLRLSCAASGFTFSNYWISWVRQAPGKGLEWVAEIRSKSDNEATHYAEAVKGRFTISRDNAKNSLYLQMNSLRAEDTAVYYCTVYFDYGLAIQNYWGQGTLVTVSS VL: EIVLTQSPATLSLSPGERATLSCKASKNVTTYVSWYQQKPGQAPRLLIYAASNRYTGIPARFSGSGSGTDFTLTISSLEPEDFAVYYCSQSYNYPYTFGQGTKLEIK	0.00613 s⁻¹

Turning now to a further molecule:
For M73: G1 variant; L1 R28N T30G; L2 L56S; H2 E54K A57N S58Y E64D; HC-FW3 L99T A100V (antibody, V domains shown) VH: EVQLVESGGGLVQPGGSLRLSCAASGFTFSNYWISWVRQAPGKGLEWVAEIRSKSDNYATHYADAVKGRFTISRDNAKNSLYLQMNSLRAEDTAVYYCTVYFDYGLAIQNYWGQGTLVTVSS VL: EIVLTQSPATLSLSPGERATLSCKASKNVGTYVSWYQQKPGQAPRLLIYGASNRYSGIPARFSGSGSGTDFTLTISSLEPEDFAVYYCSQSYNYPYTFGQGTKLEIK , what is its reported α-rat koff?
0.003 s⁻¹
